Assay: yeast display, Sf9 membrane polyspecificity reagent, FACS + sequencing; frameworks hold sequencing errors
MEASUREMENT_TYPE: polyreactivity (PSR sort gate)

A selection of reference data follows.
>  <ENTRY_SEQUENCE>
QVQLQESGGGLVQAGGSLRLSCAASGTIFRFRYMGWHRQAPGKERELVAGINGGTTTYYADSVIGRFTISRDNAKKSVYLQMNSLKPDDTAVYNCAAGASRLTYYDYWGQGTQVTVSS

>  <polyreactivity (PSR sort gate)>
low polyreactivity

$$$$
>  <ENTRY_SEQUENCE>
QVQLVESGGGLVQAGGSLRLSCAASGRIFGFYTMGWYRQAPGKERELVAGISRGGSTYYADSVKGRFTISRDNAKNTGYVQMNSLNPEDTAVYDCAADLGWGYEYWGQGTQVTVSS

>  <polyreactivity (PSR sort gate)>
low polyreactivity

$$$$
>  <ENTRY_SEQUENCE>
QVQLVESGGGLVQAGGSLRLSCAASGFTFNYYAMGWYRQAPGKERELVAAIDSGGNTYYADSVKGRFTISRDNAKNTVYLQMNRLKPEDTAVYYCAAYRDYQYDYWGQGTQVTVSS

>  <polyreactivity (PSR sort gate)>
low polyreactivity

$$$$
>  <ENTRY_SEQUENCE>
QVQLVESGGGLVQAGGSLRLSCAASGSIFRGYGMGWYRQAPGKERELVAAITSGDSTNYADSVKARFTLSRDNAKTTVYLQMNSLKPEDTAVNYCAAASTGRPSVSYDYWGQGTQVTVSS

>  <polyreactivity (PSR sort gate)>
low polyreactivity

$$$$
>  <ENTRY_SEQUENCE>
QVQLVESGGGLVQAGGSLRLSCAASGSIIVRYAMGWYRQAPGKERELVAAISWSGGRTYYADSVKGRFTISRDNAKNTVYLQMNSLKPEDTAVYYCAADSSVRYRDTEDYWGQGTQVTVSS

>  <polyreactivity (PSR sort gate)>
low polyreactivity

$$$$
>  <ENTRY_SEQUENCE>
QLQLVESGGGLVQAGGSLRLSCAASGSTFSVYAMGWYRPAPGKERELVAAISSGGNTKYADSVKGRFTISRDNAKNTVYLQMNSLKPEDTAVYYCNADSQRPAYWDGYWGQGTQVTVSS

>  <polyreactivity (PSR sort gate)>
low polyreactivity

$$$$
>  <ENTRY_SEQUENCE>
QVQLVESGGGLVQAGGSLRLSCPASGRTFGDYAMGWYRQAPGKERELVAAISSSGGRTYYADSVKGRFTISRDNAKNTVYLQMNSLKPEDTAVYYCAAQSKYYQYYSWGQGTQVTVSS

>  <polyreactivity (PSR sort gate)>
high polyreactivity

$$$$
>  <ENTRY_SEQUENCE>
QVQLVESGGGLVQAGGSLRLSCAASGFTFGGYAMGWYRQAPGKERELVAAITGSGGNTFYADSVKGRFTISRDNAKNTVYLQMNSLKPEDTAVYYCAALAPYIGGVDYDYWGQGTQVTVSS

>  <polyreactivity (PSR sort gate)>
low polyreactivity

$$$$

Consider the sequence shown here: QVQLVESGGGLVQAGGSLRLSCAASGITSCFSAMGWYRPAPGQERELVAGISSGGSTNYADSVKGRFTISRDNAKNTVYLQMTSLKPEDTAVYYCPATFYNRYETRYYYWGQGTQVTVSS What is its recorded polyreactivity (PSR sort gate)?
high polyreactivity

polyreactivity (PSR sort gate) for QVQLVESGGGLVQAGGSLRLSCAGSGSTFGGYAMGWYRQAPGKEWELVAAINSGGSTYYADSVKGRFTISRDNAKNTVYLQMNSLKPEDTAVYYCNADSQVIRDYIFDYWGQGTQVTVSS ?
low polyreactivity

What does the record list as polyreactivity (PSR sort gate) for QVQLVESVGGLVQAGGSLRLSCAASGFTFGPYAMGWYRQSPGKERELVAPIDDSGGNTYYADSVKGRFTISRDNAKNTVYLQMNSLKQEDTAVYYCNAFGADYYHVYPAEDYWGQGNQVTVSS ?
low polyreactivity

Dear colleague, I am looking for the recorded polyreactivity (PSR sort gate) of the following sequence: QVQLVESGGGLVQAGGSLRLSCAASGFMFSRYAMGWYRQAAGTERELVAAITSSGGRTYYADSVKGRFTISRDNAKNTVYLQMTSLKPEDTAVYYCNADLGSWYTWFDYWGQGTQVTVSS
high polyreactivity

Could you tell me which polyreactivity (PSR sort gate) is on file for QVHLVESGGCLVQAGCSLRLSCAASGRTFGWNVMGWYRQAPGTERELVAAISGSGGSTYYADSVKGRFTISRDNAKNTVYLQMNSLKPEDTAVYYCAALYGPGREYDYWGQGTQVTVSS ?
low polyreactivity
